- Assay Procedure: gradient 5% acetonitrile 3 min, to 50% in 2 min, to 85% in 15 min, held 3 min, 100 µL/min
- Stated Conditions: column: Zorbax Extend-C18 2.1 x 50 mm; eluents: water / acetonitrile, 0.1% formic acid
Reported RP-LC retention time by item:

{"Molecule": "COc1cccc(C(c2sc3ncnn3c2O)N2CCN(C(=O)c3ccco3)CC2)c1 (stereo not given)", "RP-LC retention time / s": 642}
{"Molecule": "CCOC(=O)c1cccc(NC(=O)CCc2c(-c3ccccc3)nc3ccccn23)c1", "RP-LC retention time / s": 984}
{"Molecule": "CC(C)CCNC(=O)C1CC(=O)N(c2n[nH]c3cccc(F)c23)C1 (stereo not given)", "RP-LC retention time / s": 699}
{"Molecule": "Cc1cc(C)cc(Oc2cc(N3CCC(C(=O)NCCc4ccccc4)CC3)ncn2)c1", "RP-LC retention time / s": 986}
{"Molecule": "CNC(=O)c1oc2ccccc2c1NC(=O)C1CCC1", "RP-LC retention time / s": 803}

###

Entries and their RP-LC retention time values follow.
- Assay Procedure: gradient 5% acetonitrile 3 min, to 50% in 2 min, to 85% in 15 min, held 3 min, 100 µL/min
- Stated Conditions: column: Zorbax Extend-C18 2.1 x 50 mm; eluents: water / acetonitrile, 0.1% formic acid

{"Compound": "COCCNC(=O)N1CCCCC1c1nncn1Cc1ccccc1 (stereo not given)", "RP-LC retention time [s]": 539}
{"Compound": "O=C(Nc1ccc2c(c1)CN(C(=O)c1cccs1)CC2)c1cnccn1", "RP-LC retention time [s]": 708}
{"Compound": "O=C(c1ccc2c(c1)OCO2)N1CCC2(CC1)N=C(c1ccccc1)NO2", "RP-LC retention time [s]": 858}
{"Compound": "CCOC(=O)c1[nH]c(C)c(C(=O)C(C)N(CCOC)C(=O)c2ccccc2Cl)c1C (stereo not given)", "RP-LC retention time [s]": 820}
{"Compound": "Cc1ccc(-c2csc(Cc3nc(-c4ccc(F)cc4)no3)n2)cc1C", "RP-LC retention time [s]": 1320}
{"Compound": "COc1ccc(NC(=O)N2CCN(c3cc(C)nc(N4CCCC4)n3)CC2)c(C)c1", "RP-LC retention time [s]": 692}
{"Compound": "COCCn1c(C2CCN(S(=O)(=O)c3ccc(F)cc3)C2)nc2cccnc21 (stereo not given)", "RP-LC retention time [s]": 763}
{"Compound": "CCS(=O)(=O)N1CC(=O)N(c2ccc(F)cc2C)C(C)(C(=O)NC2CCCCCCC2)C1 (stereo not given)", "RP-LC retention time [s]": 997}
{"Compound": "CCN(CC)CC(C)(C)C(=O)/C=C/c1ccc(C)cc1", "RP-LC retention time [s]": 684}
{"Compound": "Cc1ccc(C(=O)NCc2nn(C)c3ccccc23)cc1", "RP-LC retention time [s]": 810}

###

- Assay Procedure: gradient 5% acetonitrile 3 min, to 50% in 2 min, to 85% in 15 min, held 3 min, 100 µL/min
- Stated Conditions: column: Zorbax Extend-C18 2.1 x 50 mm; eluents: water / acetonitrile, 0.1% formic acid
Each item that follows carries a reported RP-LC retention time.

{"Compound": "CC(C)Oc1ccc(CNC(=O)c2nnc(-c3ccc(S(=O)(=O)N4CCOCC4)cc3)o2)cc1", "RP-LC retention time, s": 915}
{"Compound": "CC(C)Cn1cc(CCNC(=O)c2ccc(C(F)(F)F)cc2)c2cccnc21", "RP-LC retention time, s": 940}
{"Compound": "COc1ccc(-c2cn3c(CC(=O)N4CCN(c5ncccn5)CC4)csc3n2)cc1OC", "RP-LC retention time, s": 639}
{"Compound": "CN(C(=O)C1CCCN(c2ncnc3c2nc2n3CCCCC2)C1)c1ccccc1F (centres undefined)", "RP-LC retention time, s": 785}
{"Compound": "COC(=O)c1cc(Nc2ccc(OC)cc2OC)c2ccccc2n1", "RP-LC retention time, s": 581}
{"Compound": "COC[C@@H]1CN(S(=O)(=O)c2ccc(C)cc2)C[C@H]1c1ccncc1", "RP-LC retention time, s": 651}
{"Compound": "N#CCn1cccc1-c1nc(-c2ccncc2)no1", "RP-LC retention time, s": 685}
{"Compound": "Nc1nc(N2CCC3(CC2)OCCO3)ncc1C(=O)NCc1ccccc1", "RP-LC retention time, s": 705}
{"Compound": "CCOC(=O)c1cc(S(=O)(=O)N2CCCC2C(=O)N2CCCCC2)cn1C (centres undefined)", "RP-LC retention time, s": 767}

###

- Assay Procedure: gradient 5% acetonitrile 3 min, to 50% in 2 min, to 85% in 15 min, held 3 min, 100 µL/min
- Stated Conditions: column: Zorbax Extend-C18 2.1 x 50 mm; eluents: water / acetonitrile, 0.1% formic acid
Decision: RP-LC retention time compared against 600 s; not below it gives y, below it gives n.

{"Compound": "CC(C)(C)CC(=O)N1CC(c2nc(-c3ccccc3)no2)C2(CCOCC2)C1 (stereo not given)", "Class Assignment": "y"}
{"Compound": "Cc1noc(C)c1S(=O)(=O)N1CCC(c2nnc(-c3ccco3)o2)CC1", "Class Assignment": "y"}
{"Compound": "O=C(O)[C@@H]1OCCN(C2CC2)[C@H]1c1ccccc1", "Class Assignment": "n"}
{"Compound": "CCOC(=O)c1[nH]c(C)c(C(=O)N(Cc2ccccc2)C(C)C)c1C", "Class Assignment": "y"}
{"Compound": "CCN(CC)CCOC(=O)C(O)(c1ccccc1)c1ccccc1", "Class Assignment": "y"}
{"Compound": "CCCNC(=O)C1CCN(c2ccc(SCC(=O)Nc3ccc(C)cc3)nn2)CC1", "Class Assignment": "y"}
{"Compound": "Cc1ccc(C(O)CN2CCN(c3ccccn3)CC2)cc1 (stereo not given)", "Class Assignment": "n"}
{"Compound": "COc1cccc(NC(=O)N(C)CCc2noc(COc3ccc(F)cc3)n2)c1", "Class Assignment": "y"}
{"Compound": "COc1cc(OC)c(NC(=O)Cn2cc3c(n2)CCC(C)C3)cc1Cl (stereo not given)", "Class Assignment": "y"}
{"Compound": "COc1ccc(NC(=O)Cn2nc3c(Oc4cc(C)cc(C)c4)nccn3c2=O)cc1", "Class Assignment": "y"}
{"Compound": "Cc1ccc(C(=O)N2C[C@@H]3C[C@H](NS(C)(=O)=O)[C@H]2C3)cc1F", "Class Assignment": "y"}
{"Compound": "CC1=C(c2ccc(C)cc2)S(=O)(=O)N=C1N1CCCN(C(=O)NC2CCCC2)CC1", "Class Assignment": "y"}
{"Compound": "Cc1ccc2nc(-c3ccccc3O)c(Nc3ccccc3C)n2c1", "Class Assignment": "y"}
{"Compound": "CC(=O)c1cccc(NC(=O)Cc2csc3nc(-c4ccccc4)cn23)c1", "Class Assignment": "y"}
{"Compound": "O=C(NCc1cccs1)C1CCCN(c2nnc3c(Cl)cccn23)C1 (stereo not given)", "Class Assignment": "y"}
{"Compound": "Cc1noc(C2CN(C(=O)c3ccc(=O)n(C)n3)C2)n1", "Class Assignment": "n"}
{"Compound": "CCCCC(=O)Nc1ccc2nc(N3CCN(c4ccccc4Cl)CC3)cc(C(=O)O)c2c1", "Class Assignment": "y"}

###

- Assay Procedure: gradient 5% acetonitrile 3 min, to 50% in 2 min, to 85% in 15 min, held 3 min, 100 µL/min
- Stated Conditions: column: Zorbax Extend-C18 2.1 x 50 mm; eluents: water / acetonitrile, 0.1% formic acid
Each entry below lists one item and its recorded RP-LC retention time value.
Measure: RP-LC retention time (s)

{"Molecule": "Cc1occc1C(=O)N1CCCn2ccnc2C1C(C)C (centres undefined)", "Measure": "RP-LC retention time", "U": "s", "Result": 574}
{"Molecule": "COc1ccc(-n2ccc(=O)c(-c3nc(-c4ccc(C)cc4)no3)n2)cc1", "Measure": "RP-LC retention time", "U": "s", "Result": 932}
{"Molecule": "O=C(CCCS(=O)(=O)c1ccc(F)cc1)Nc1nnc(-c2ccno2)o1", "Measure": "RP-LC retention time", "U": "s", "Result": 637}
{"Molecule": "O=[N+]([O-])c1cccc(-c2nnc(-c3ccccc3)o2)c1", "Measure": "RP-LC retention time", "U": "s", "Result": 887}
{"Molecule": "CCc1oc2cc(S(=O)(=O)Nc3ccc(S(=O)(=O)Nc4nccs4)cc3)ccc2c1C(=O)c1cc(Br)c(O)c(Br)c1", "Measure": "RP-LC retention time", "U": "s", "Result": 895}
{"Molecule": "CCOC(=O)c1[nH]c(C)c(C(=O)N2CCC(CC(=O)NC(C)CC)CC2)c1C (centres undefined)", "Measure": "RP-LC retention time", "U": "s", "Result": 670}
{"Molecule": "O=C(CN1CCc2nc(NC(=O)C3CC3)sc2C1)Nc1ccccc1C(F)(F)F", "Measure": "RP-LC retention time", "U": "s", "Result": 620}
{"Molecule": "CCCN1CCN(CCNC(=O)C2CCCN(c3ncc(-c4cccc(F)c4)cn3)C2)CC1 (centres undefined)", "Measure": "RP-LC retention time", "U": "s", "Result": 641}
{"Molecule": "Cc1noc(-c2ccc(OC3CN(C(=O)NCc4ccccc4)C3)cc2)n1", "Measure": "RP-LC retention time", "U": "s", "Result": 836}
